System: A549
EXPERIMENT_SUMMARY: Cytotoxicity against human A549 cells after 48 hrs by SRB assay
Assay type: functional, cell-based
CONDITION_SUMMARY: A549, 48 h
READOUT: IC50 (µM)
I only need the number, in µM, no unit after it.

See these solved cases before continuing.
Q: Which value of IC50 has been reported for C=C(CC[C@@H](C)[C@H]1CC[C@H]2C3=C(C(=O)C[C@]12C)[C@@]1(C)CCC(=O)[C@](C)(O)[C@@H]1C[C@@H]3O)[C@@H](C)C(=O)O in the records?
Ans: 66.3

Q: Which value of IC50 has been reported for C=C(CC[C@@H](C)[C@H]1CC[C@H]2C3=C(C(=O)C[C@]12C)[C@@]1(C)CCC(=O)[C@](C)(O)[C@@H]1C[C@@H]3O)[C@H](C)C(=O)O in the records?
Ans: 80.2

Q: Can you share its IC50? I mean this compound: C=C(CC[C@@H](C)[C@H]1CC[C@H]2C3=C(C(=O)C[C@]12C)[C@@]1(C)CCC(=O)[C@@H](C)[C@@H]1CC3)C(C)C(=O)O (stereo partly drawn) [ANTCIN A]
Ans: 39.4

Q: Please look up its IC50: C=C(CC[C@@H](C)[C@H]1CC[C@H]2C3=C(C(=O)[C@H](O)[C@]12C)[C@@]1(C)CC[C@@H](O)[C@@H](C)[C@@H]1CC3=O)[C@H](C)C(=O)O
Ans: 32.8

Q: # IC50 lookup, item C=C(CC[C@@H](C)[C@H]1CC[C@H]2C3=C(C(=O)C[C@]12C)[C@@]1(C)CC[C@@H](O)[C@](C)(O)[C@@H]1CC3=O)C(C)C(=O)O (stereo partly drawn) [CAMPHORATIN C]
Ans: 48.8

Further cases:
Q: Given C=C(CC[C@@H](C)[C@H]1CC[C@H]2C3=C(C(=O)C[C@]12C)[C@@]1(C)CCC(=O)[C@@H](C)[C@@H]1C[C@@H]3O)[C@@H](C)C(=O)O , state its recorded IC50.
Ans: 33.1

Q: May I ask what IC50 has been recorded for C=C(CC[C@@H](C)[C@H]1CC[C@H]2C3=C(C(=O)[C@H](O)[C@]12C)[C@@]1(C)CC[C@@H](O)[C@@H](C)[C@@H]1C[C@@H]3O)C(C)C(=O)O (stereo partly drawn) [CAMPHORATIN A] ?
Ans: 92.1

Q: Which measured IC50 value corresponds to C=C(CC[C@@H](C)[C@H]1CC[C@H]2C3=C(C(=O)C[C@]12C)[C@@]1(C)CCC(=O)[C@@H](C)[C@@H]1CC3=O)[C@H](C)C(=O)O [ANTCIN B] ?
Ans: 57.4
